target: HLA-B*07:02; experiment: IEDB peptide-MHC binding, purified MHC/competitive/fluorescence; filed as Kd, often an IC50 or EC50 that approximates it; bounds were set here for any values at or beyond the usual limits of such assays; details: source organism: Giardia lamblia ATCC 50803
measurementName: Kd

Lookup result for "MTFPLHFRS" ; measured Kd: ≥ 5 µM

* * *

molecular target: HLA-B*18:01; experiment: IEDB peptide-MHC binding, purified MHC/competitive/fluorescence; filed as Kd, often an IC50 or EC50 that approximates it; bounds were set here for any values at or beyond the usual limits of such assays; settings: source organism: Human immunodeficiency virus 1
measurementName: pKd
A value of pKd is the negative decimal logarithm of a concentration given in moles per litre.

For reference, reported pKd for "IEVKDTKEAL" stands at 6.50

* * *

target: HLA-B*35:01; test: IEDB peptide-MHC binding, purified MHC/competitive/radioactivity; filed as Kd, often an IC50 or EC50 that approximates it; bounds were set here for any values at or beyond the usual limits of such assays; settings: source organism: SARS coronavirus Tor2
measurementName: log10 of Kd (log10 of the value in nM)
Hey, these are logged values: log10 of Kd, nM being the unit before logging.

Observe how each entry below is paired with its result.
entrysequence=KPRSQMETDF observedvalue=4.29
entrysequence=MPICMDVRAI observedvalue=1.98
entrysequence=KPVDTSNSF observedvalue=2.42
entrysequence=FPQAAPHGVV observedvalue=3.23

// below: log10 of Kd requested for another sequence
Record "WPVTLACFVL" / HLA-B*35:01, log10 of Kd recorded as 1.85

* * *

biological target: HLA-A*03:01; assay: IEDB peptide-MHC binding, purified MHC/competitive/radioactivity; filed as Kd, often an IC50 or EC50 that approximates it; bounds were set here for any values at or beyond the usual limits of such assays; settings: source organism: Mammarenavirus brazilense
measurementName: Kd (nM)
# number only, unit nM dropped from output

Form field Kd, entry "FKVAFSKHYK" : 279

* * *

target: HLA-A*02:06; assay: IEDB peptide-MHC binding, purified MHC/competitive/radioactivity; filed as Kd, often an IC50 or EC50 that approximates it; bounds were set here for any values at or beyond the usual limits of such assays; settings: source organism: Dengue virus 4 Philippines/H241/1956
measurementName: Kd (nM)
API: value field is a number in nM; no unit string.

entrysequence=RVILAGPIPV measurementname=Kd unitdescriptor=nM observedvalue=33.5

get_value(item= "YQGKTVWFV" , readout=Kd) returns 12.3

* * *

target: HLA-B*27:05; test: IEDB peptide-MHC binding, purified MHC/direct/fluorescence; filed as Kd, often an IC50 or EC50 that approximates it; bounds were set here for any values at or beyond the usual limits of such assays; details: source organism: Reston ebolavirus - Reston
pKd: −log10 of the molar value.
Below, each entry is listed with its recorded pKd.

entrysequence=KHDFIDNPL observedvalue="≤ 4.70"

# ---- query sequence ----
"FHRKKTDAL" yielded pKd of ≤ 4.70

* * *

target: HLA-B*27:05; assay: IEDB peptide-MHC binding, purified MHC/competitive/fluorescence; filed as Kd, often an IC50 or EC50 that approximates it; bounds were set here for any values at or beyond the usual limits of such assays; conditions: source organism: Entamoeba histolytica HM-1:IMSS
pKd: −log10 of the molar value.
measurementName: pKd

// field: pKd; key: "NPAACSYMV" ; value = ≤ 5.30
